assay: Stability test -1: residual rate of 1% aqueous solutions at pH 3 to 9 on storage; assay type: physicochemical; conditions: 1% aqueous solution, pH7, stored at 50°C, after 2 weeks
MEASUREMENT LABEL: Residual Rate After 2 weeks

                                   compound            measurement_label  measured_result
0  O=C1O[C@H]([C@@H](O)CO)C(O)=C1O [Ascorbic acid]  Residual Rate After 2 weeks                ×
1  O=C1OC(C(O)CO)C2=C1OCCCO2 (stereo not shown) [synthesis example 2, 2,3-O-(1,3-propanediyl) ascorbic acid]  Residual Rate After 2 weeks                ⊚
2  O=C1OC(C(O)CO)C2=C1OCC1(COC1)CO2 (stereo not shown) [synthesis example 6]  Residual Rate After 2 weeks                ○
3  O=C1OC(C(O)CO)C2=C1OCCCCO2 (stereo not shown) [synthesis example 3, 2,3-O-(1,4-butanediyl) ascorbic acid]  Residual Rate After 2 weeks                ⊚
4  O=C1OC(C(O)CO)C2=C1OCC(O)CO2 (stereo not shown) [synthesis example 4]  Residual Rate After 2 weeks                ○
5  O=C1OC(C(O)CO)C2=C1OC(CO)CO2 (stereo not shown) [synthesis example 5]  Residual Rate After 2 weeks                ○
6  O=C1OC(C(O)CO)C2=C1OCCO2 (stereo not shown) [synthesis example 1, 2,3-O-(1,2-ethanediyl) ascorbic acid]  Residual Rate After 2 weeks                ○

---

test: Stability test -1: residual rate of 1% aqueous solutions at pH 3 to 9 on storage; assay type: physicochemical; conditions: 1% aqueous solution, pH7, stored at 50°C, after 4 weeks
MEASUREMENT LABEL: Residual Rate After 4 weeks

>>> print(df.to_string())
                                   compound  measured_result
0  O=C1OC(C(O)CO)C2=C1OCCO2 (stereo not shown) [synthesis example 1, 2,3-O-(1,2-ethanediyl) ascorbic acid]                Δ
1  O=C1OC(C(O)CO)C2=C1OCC1(COC1)CO2 (stereo not shown) [synthesis example 6]                ○
2  O=C1OC(C(O)CO)C2=C1OC(CO)CO2 (stereo not shown) [synthesis example 5]                Δ
3           O=C1O[C@H]([C@@H](O)CO)C(O)=C1O                ×
4  O=C1OC(C(O)CO)C2=C1OCC(O)CO2 (stereo not shown) [synthesis example 4]                ○
5  O=C1OC(C(O)CO)C2=C1OCCCO2 (stereo not shown) [synthesis example 2, 2,3-O-(1,3-propanediyl) ascorbic acid]                ⊚
6  O=C1OC(C(O)CO)C2=C1OCCCCO2 (stereo not shown) [synthesis example 3, 2,3-O-(1,4-butanediyl) ascorbic acid]                ⊚

---

assay: Stability test -2: odor and coloration of cream stored at 50°C; assay type: physicochemical; conditions: Test Example 2, cream stored at 50°C, total score of 10 panelists, after 4 weeks

COMPOUND	Coloration After 4 weeks
CCCCCCCCCCCC(=O)OCC(OC(=O)CCCCCCCCCCC)C1OC(=O)C2=C1OCCCO2 (stereo not drawn) [synthesis example 25]	Δ
CCCCCCCCCCCCCCCC(=O)OCC(OC(=O)CCCCCCCCCCCCCCC)C1OC(=O)C2=C1OCCCO2 (stereo not drawn) [Synthesis Example 27]	Δ
CCCCCCCCC(CCCCCC)C(=O)OC[C@H](OC(=O)C(CCCCCC)CCCCCCCC)[C@H]1OC(=O)C(OC(=O)C(CCCCCC)CCCCCCCC)=C1OC(=O)C(CCCCCC)CCCCCCCC (stereo partly drawn) [Ascorbyl tetrahexyldecanoate, reference compound]	Δ

---

Assay: Stability test -1: odor and coloration scored by 10 panelists
Format: physicochemical
Details: Test Example 1, aqueous solution, total score of 10 panelists, after 4 weeks
Procedure: For each of the samples of Synthesis Examples 1 to 6, 1% aqueous solutions were adjusted to pH 3, 5, 7, 8, and 9 with a dilute potassium hydroxide aqueous solution, and then placed in 50 mL screw tubes and • 2: Color changes compared to immediately after preparation. • 1: Strongly colored compared to immediately after preparation. […]
MEASUREMENT LABEL: Odor After 4 weeks

>>> df
                                   molecule  measured_result
0  O=C1OC(C(O)CO)C2=C1OCCCO2 (stereo not shown) [synthesis example 2, 2,3-O-(1,3-propanediyl) ascorbic acid]                Δ

---

assay: Stability test -1: residual rate of 1% aqueous solutions at pH 3 to 9 on storage; assay type: physicochemical; details: 1% aqueous solution, pH9, stored at 50°C, after 4 weeks
MEASUREMENT LABEL: Residual Rate After 4 weeks

In [3]: df
Out[3]:
                                   compound  measured_result
0  O=C1OC(C(O)CO)C2=C1OCCO2 (stereo not drawn) [synthesis example 1, 2,3-O-(1,2-ethanediyl) ascorbic acid]                ×
1  O=C1OC(C(O)CO)C2=C1OCC1(COC1)CO2 (stereo not drawn) [synthesis example 6]                Δ
2           O=C1O[C@H]([C@@H](O)CO)C(O)=C1O                ×

---

experiment: Stability test -2: odor and coloration of cream stored at 50°C; assay type: physicochemical; details: Test Example 2, cream stored at 50°C, total score of 10 panelists, after 4 weeks
MEASUREMENT LABEL: Coloration After 4 weeks

>>> df
                                   compound  measured_result
0  CCCCCCCCCCCCCCCC(=O)OCC(O)C1OC(=O)C2=C1OCCCO2 (stereo not shown) [synthesis example 26]                Δ

---

experiment: Stability test -1: residual rate of 1% aqueous solutions at pH 3 to 9 on storage; assay type: physicochemical; settings: 1% aqueous solution, pH8, stored at 50°C, after 2 weeks
MEASUREMENT LABEL: Residual Rate After 2 weeks

>>> print(df.to_string())
                                   compound            measurement_label  measured_result
0  O=C1OC(C(O)CO)C2=C1OCCO2 (stereo not shown) [synthesis example 1, 2,3-O-(1,2-ethanediyl) ascorbic acid]  Residual Rate After 2 weeks                Δ
1  O=C1OC(C(O)CO)C2=C1OCC1(COC1)CO2 (stereo not shown) [synthesis example 6]  Residual Rate After 2 weeks                ○
2  O=C1OC(C(O)CO)C2=C1OCCCO2 (stereo not shown) [synthesis example 2, 2,3-O-(1,3-propanediyl) ascorbic acid]  Residual Rate After 2 weeks                ⊚
3  O=C1OC(C(O)CO)C2=C1OCC(O)CO2 (stereo not shown) [synthesis example 4]  Residual Rate After 2 weeks                ○
4  O=C1OC(C(O)CO)C2=C1OC(CO)CO2 (stereo not shown) [synthesis example 5]  Residual Rate After 2 weeks                ○
5  O=C1OC(C(O)CO)C2=C1OCCCCO2 (stereo not shown) [synthesis example 3, 2,3-O-(1,4-butanediyl) ascorbic acid]  Residual Rate After 2 weeks                ⊚
6           O=C1O[C@H]([C@@H](O)CO)C(O)=C1O  Residual Rate After 2 weeks                ×

---

experiment: Stability test -1: residual rate of 1% aqueous solutions at pH 3 to 9 on storage; type: physicochemical; details: 1% aqueous solution, pH8, stored at 50°C, after 4 weeks
MEASUREMENT LABEL: Residual Rate After 4 weeks

                                   compound  measured_result
0           O=C1O[C@H]([C@@H](O)CO)C(O)=C1O                ×
1  O=C1OC(C(O)CO)C2=C1OCC(O)CO2 (stereo not drawn) [synthesis example 4]                Δ
2  O=C1OC(C(O)CO)C2=C1OCCCCO2 (stereo not drawn) [synthesis example 3, 2,3-O-(1,4-butanediyl) ascorbic acid]                ○

---

test: Stability test -1: residual rate of 1% aqueous solutions at pH 3 to 9 on storage; format: physicochemical; settings: 1% aqueous solution, pH9, stored at 50°C, after 2 weeks
MEASUREMENT LABEL: Residual Rate After 2 weeks

                                   compound  measured_result
0  O=C1OC(C(O)CO)C2=C1OCCO2 (stereo not shown) [synthesis example 1, 2,3-O-(1,2-ethanediyl) ascorbic acid]                ×
1  O=C1OC(C(O)CO)C2=C1OCCCO2 (stereo not shown) [synthesis example 2, 2,3-O-(1,3-propanediyl) ascorbic acid]                ○
2  O=C1OC(C(O)CO)C2=C1OCC1(COC1)CO2 (stereo not shown) [synthesis example 6]                ○
3  O=C1O[C@H]([C@@H](O)CO)C(O)=C1O [Ascorbic acid]                ×
4  O=C1OC(C(O)CO)C2=C1OCCCCO2 (stereo not shown) [synthesis example 3, 2,3-O-(1,4-butanediyl) ascorbic acid]                ○
5  O=C1OC(C(O)CO)C2=C1OC(CO)CO2 (stereo not shown) [synthesis example 5]                ○
6  O=C1OC(C(O)CO)C2=C1OCC(O)CO2 (stereo not shown) [synthesis example 4]                ○
